system: SR leukemia; assay: NCI-60 one-dose screen, 48 h; conditions: 10 µM unless noted
The panel holds about 83,000 compounds, 20% with a hit somewhere; the sample as a whole holds those more often. Activity calls are given as the source filed them. Rule for the calls: active = growth percent below 10; inactive = the rest.
Classes used: TRUE (active), FALSE (inactive)

{"Line Notation": "CC(=O)N[C@@H](CNC(=O)c1cc(NC(=O)c2cc(NC(=O)c3cc(NC(=O)c4nccn4C)cn3C)cn2C)cn1C)CC(=O)Nc1cn(C)c(C(=O)Nc2cc(C(=O)Nc3cc(C(=O)Nc4cc(C(=O)NCCCN(C)CCCNC(=O)c5cccc(C(=O)O)c5)n(C)c4)n(C)c3)n(C)c2)n1", "Assigned Label": "FALSE"}
{"Line Notation": "O=C(Nc1ccc(-n2ccc3c(NC(=O)c4ccccc4)ncnc32)cc1)c1cccc(C(F)(F)F)c1", "Assigned Label": "TRUE"}
{"Line Notation": "COc1ccc2c(c1)O/C(=C/c1ccc(OCC(=O)Nc3ccc(S(N)(=O)=O)cc3)cc1)C2=O", "Assigned Label": "FALSE"}
